Molecular target: anti-HIV1-p17 antibody
Test: Peptide binding assay using fluorescence polarization, anti-HIV1-p17
Settings: read-out: Kd, fluorescence polarization titration (Eq. 8); 10 nM fluorescein-labeled peptide titrated with antibody
QUANTITY_NAME: Kd (nM)
One number for each entry, in nM.

Query block: Look up Kd: `ELDRWEKIRLRP-GGG-C(Fluorescein)`
Result block: 24
